- TARGET SYSTEM: carbonic anhydrase II (Sigma)
- Sequence (P00921 2-260): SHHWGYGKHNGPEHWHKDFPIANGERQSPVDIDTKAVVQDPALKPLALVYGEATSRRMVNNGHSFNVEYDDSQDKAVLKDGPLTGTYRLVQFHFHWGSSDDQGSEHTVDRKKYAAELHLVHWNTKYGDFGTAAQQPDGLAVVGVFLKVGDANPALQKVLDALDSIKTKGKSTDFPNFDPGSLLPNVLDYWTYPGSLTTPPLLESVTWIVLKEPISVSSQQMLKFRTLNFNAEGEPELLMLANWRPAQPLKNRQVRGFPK
- PROTOCOL DESCRIPTION: fluorescence emission change of labelled peptide, PBS
Ends that are not written are not given here.
Listing of entries alongside the reported pKd.
Value format note: pKd is -log10 of concentration (mol/L); just state the number.

BINDER | ASSAY METRIC | NUMBER
GPSQPTYPGDDAPVEDLIRFVGRLLAYFGDTINRYC(5‑iodoacetamidofluorescein)-NH2 (designed binder, p4121-flu tied to p4099 by order and mass difference only; also called p4099 (GAGT); p4121-flu) [p4099, fluorescein-labelled] | pKd | 5.07

Query block: Give a short answer stating reported pKd for GQVGRQLAIIGDDINRYC(5‑iodoacetamidofluorescein)-NH2 (also called Bak BH3 peptide; Bak 72-94) [Bak peptide, fluorescein-labelled (Bak-flu)] .
Result block: 4.66
